# Study Target: brain AChE (Rattus norvegicus)
# Construct: from tissue; host or cells: rat brain (male SD rats), homogenate in Triton/phosphate buffer, supernatant
# Sequence (P37136 32-614): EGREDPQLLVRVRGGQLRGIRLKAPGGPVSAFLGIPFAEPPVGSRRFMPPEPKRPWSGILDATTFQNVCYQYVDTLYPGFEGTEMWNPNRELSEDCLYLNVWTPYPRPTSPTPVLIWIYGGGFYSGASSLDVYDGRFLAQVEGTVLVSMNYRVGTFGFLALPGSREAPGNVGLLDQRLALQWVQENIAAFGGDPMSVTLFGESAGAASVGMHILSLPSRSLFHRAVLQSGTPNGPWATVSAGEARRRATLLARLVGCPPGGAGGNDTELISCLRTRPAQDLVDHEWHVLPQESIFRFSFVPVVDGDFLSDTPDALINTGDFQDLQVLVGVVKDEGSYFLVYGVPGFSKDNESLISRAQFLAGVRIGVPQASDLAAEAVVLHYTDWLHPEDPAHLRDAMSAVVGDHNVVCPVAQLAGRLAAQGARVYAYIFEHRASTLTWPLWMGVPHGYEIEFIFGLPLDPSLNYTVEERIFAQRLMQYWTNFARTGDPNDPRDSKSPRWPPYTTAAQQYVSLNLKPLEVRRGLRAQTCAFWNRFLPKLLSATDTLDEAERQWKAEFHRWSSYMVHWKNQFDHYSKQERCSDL
# Measurement Notes: Inhibition kinetics of brain AChE after oral administration (Table 2)
# Type: in vivo
# Experimental Context: Brain AUC/Heart AUC; p.o. at 1/7 LD50: CHF 2060 10, CHF 2819 1.3, CHF 2822 2.5, CHF 2957 9 mg/kg; rat
Counter-ions that a name gives are not always drawn.
Entries annotated with measured selectivity index*
Give only the figure.

Here are 3 compounds together with their reported answers.
Compound	Study Target	Readout Name	Observed
CCCCCCCNC(=O)Oc1ccc2c(c1)[C@]1(C)CCN(C)OC1N2C (stereo partly shown) [CHF 2060, hydrochloride, reference compound]	brain AChE (Rattus norvegicus)	selectivity index*	0.6
Cc1cccc(NC(=O)Oc2ccc3c(c2)[C@]2(C)CCN(C)OC2N3C)c1 (stereo partly shown) [CHF 2957, hydrochloride]	brain AChE (Rattus norvegicus)	selectivity index*	4.7
Cc1ccccc1NC(=O)Oc1ccc2c(c1)[C@]1(C)CCN(C)OC1N2C (stereo partly shown) [CHF 2822, hydrochloride]	brain AChE (Rattus norvegicus)	selectivity index*	3.9

Enter reported selectivity index* observed with brain AChE (Rattus norvegicus) for CCc1ccccc1NC(=O)Oc1ccc2c(c1)[C@]1(C)CCN(C)OC1N2C (stereo partly shown) [CHF 2819, hydrochloride]
9.7
